Form field: log10 of IC50 (one value per entry).
biological target: SARS-CoV-2 3CLpro (Severe acute respiratory syndrome coronavirus 2, UniProt P0DTD1); assay: biochemical
log10 IC50, nM

// known answers, use as guide
Asked: Value lookup for log10 of IC50; key = CC1(C)[C@@H]2[C@@H](C(=O)NN(C[C@@H]3CCNC3=O)C(=O)[C@H](F)Cl)N(C(=O)Cc3cc(C(F)(F)F)cc(C(F)(F)F)c3)C[C@@H]21
Given back: 2.17

Asked: Moving on to the next compound: CCC(CC)[C@H](NC(=O)C1CC(F)(F)C1)C(=O)N1C[C@@H]2CCC[C@@H]2[C@H]1C(=O)NN(C[C@@H]1CCNC1=O)C(=O)[C@H](F)Cl
Given back: 1.00

Asked: Moving on to the next compound: CC[C@H](C)[C@H](NC(=O)C1(F)CC1)C(=O)N1C[C@H]2[C@@H]([C@H]1C(=O)NN(C[C@@H]1CCCNC1=O)C(=O)[C@H](F)Cl)C2(C)C [Example 166a]
Given back: 1.11

Asked: Moving on to the next compound: CC(C)(C)[C@H](NC(=O)C(F)(F)F)C(=O)N1CCC(C)(C)[C@H]1C(=O)NN(C[C@@H]1CCNC1=O)C(=O)[C@H](F)Cl [Example 155a]
Given back: 1.38

Asked: Moving on to the next compound: CC(C)(C)[C@H](NC(=O)C1(F)CCC1)C(=O)N1C[C@H]2[C@@H]([C@H]1C(=O)NN(C[C@@H]1CCNC1=O)C(=O)[C@H](F)Cl)C2(C)C
Given back: 1.08

More entries:
Asked: Value lookup for log10 of IC50; key = CC(C)(C)[C@H](NC(=O)C(F)(F)F)C(=O)N1C[C@@H]2CC[C@@H]2[C@H]1C(=O)NN(C[C@@H]1CCNC1=O)C(=O)[C@H](F)Cl
Given back: 1.00

Asked: Moving on to the next compound: CC(C)C(=O)N[C@H](C(=O)N1C[C@H]2[C@@H]([C@H]1C(=O)NN(C[C@@H]1CCNC1=O)C(=O)[C@H](F)Cl)C2(C)C)C(C)(C)C
Given back: 0.95

Asked: Moving on to the next compound: CC(C)(C)[C@H](NC(=O)c1cc(C(F)(F)F)on1)C(=O)N1C[C@H]2[C@@H]([C@H]1C(=O)NN(C[C@@H]1CCNC1=O)C(=O)[C@H](F)Cl)C2(C)C
Given back: 1.30

Asked: Moving on to the next compound: CC(C)(C)[C@H](NC(=O)[C@H]1CC1(F)F)C(=O)N1C[C@@H]2CCC[C@@H]2[C@H]1C(=O)NN(C[C@@H]1CCNC1=O)C(=O)[C@H](F)Cl
Given back: 0.90

Asked: Moving on to the next compound: CCC(C)(C)[C@H](NC(=O)C1(F)CC1)C(=O)N1CC(C)(C)C[C@H]1C(=O)NN(C[C@@H]1CCNC1=O)C(=O)[C@H](F)Cl
Given back: 1.23

Asked: Moving on to the next compound: CC(C)(C)C[C@H](NC(=O)C(F)(F)F)C(=O)N1C[C@H]2[C@@H]([C@H]1C(=O)NN(C[C@@H]1CCNC1=O)C(=O)[C@H](F)Cl)C2(C)C
Given back: 1.00
